# Test system: HCT-116 colon
# PROTOCOL DESCRIPTION: NCI tumour cell line growth inhibition, 48 h; in the data active means GI50 below about 0.43 µM; inactive means the rest
Answer with one of the outcomes active, inactive

How did this test come out for `CS(=O)(=O)CCNCc1nc(-c2ccc3ncnc(Nc4ccc(OCc5cccc(C(F)(F)F)c5)cc4)c3c2)cs1` ? inactive

Query: recorded result category for CCCN1C(=O)N(CCC)C2C1NC(=S)N2/N=C/C=C/c1ccccc1OC (centres undefined) in this test inactive

Entry `COc1cc2c(cc1OCCCNC(=O)c1cccc3c(=O)c4ccccc4[nH]c13)N=C[C@@H]1CCCN1C2=O` : call = ? active

Call for entry COc1cccc2c1C(=O)c1c(O)c3c(c(O)c1C2=O)C[C@](O)(C(=O)CO)C[C@H]3O[C@@H]1C[C@@H](NC(=O)CCCCCN(C)C2(c3ccc(F)cc3)CC3CCC2C3)[C@H](O)[C@@H](C)O1 (some centres undefined) : inactive

Answer briefly: the call reported for `CC[C@H]1[C@@H]2C=C[C@@H]3[C@H]4C/C=C\C(=O)NCCC[C@@H]5NC(=O)/C(=C(O)/C=C/[C@@H]4C[C@@H]3[C@H]2C[C@H]1C)C5=O` in this assay. inactive

Give the logged outcome of this assay for the following compound: `CO/N=C(\COc1ccc2c(c1)oc(=O)c1cc(OC)ccc12)c1ccc(OC)cc1` inactive

Per the records of this test, what outcome belongs to `CCn1c2ccccc2c2cc(NC(=O)Nc3ccc([N+](=O)[O-])cc3C)ccc21` ? inactive

What was the test verdict on `Cc1ncc(C(=O)Nc2ccc(CN3CCN(C)CC3)c(C(F)(F)F)c2)cc1C#Cc1cnc(N)c2ccncc12` ? inactive

Assay result, entry CCSc1ncnc2c1ncn2C1OC(CO)C(O)C1O (centres undefined) — outcome? active

Which result was noted for this compound in the test: `CN(C)CC[PH+](c1ccccc1)c1ccccc1.CN(C)CC[PH+](c1ccccc1)c1ccccc1.[Cl-].[Pd+2]` inactive

// outcome(item) with item = CN1C(=O)N(C)C2C1NN=c1s/c(=C\c3ccc(Cl)cc3Cl)c(=O)n12 (centres undefined) active

# lookup: test call for `Nc1nc(/C=C\c2ccc([N+](=O)[O-])s2)nc(N2CCCC2)n1` inactive

What was the test verdict on `Oc1cc2cccc[n+]2c2cc(Cl)ccc12` ? inactive

For COc1cc(F)ccc1-c1ncnc(Nc2cccc(CS(C)(=N)=O)c2)n1 (centres undefined) , what call appears in the results of this test? active

====

# Tested on: RPMI-8226 leukemia
# PROTOCOL DESCRIPTION: NCI tumour cell line growth inhibition, 48 h
Measured TGI, listed per entry for reference.

COc1cc(F)ccc1-c1ncnc(Nc2cccc(CS(C)(=N)=O)c2)n1 (stereo not drawn) ... 61 µM
Cc1ccccc1N1C(=O)C2C=CC(n3[nH]c(=O)n(Cc4ccccc4)c3=O)CC2C1=O (stereo not drawn) ... > 100 µM
CSc1ncnc2c1ncn2CCC(=O)OC(C)(C)C ... > 100 µM
Cn1cc(NC(=O)Nc2cc(C(=O)Nc3cc(C(=O)Nc4ccc(S(=O)(=O)O)c5cc(S(=O)(=O)O)ccc45)n(C)c3)n(C)c2)cc1C(=O)Nc1cc(C(=O)Nc2ccc(S(=O)(=O)O)c3cc(S(=O)(=O)O)ccc23)n(C)c1 ... > 100 µM
CCOc1ccccc1NC(=O)C(=O)CC(=O)c1sc(Nc2nnc(-c3ccc(Cl)c(Cl)c3)o2)nc1C ... > 100 µM
C[C@@H]1CC[C@@H]2[C@@H]1[C@H](OC(=O)/C=C/c1ccccc1)[C@]1(C3CCCCC3)C[C@@H](OC(=O)CO)[C@@]2(C)O1 ... 7.49 µM
C1=CC(N(c2ccccc2)C2C=CCCC2)CCC1 (stereo not drawn) ... > 100 µM

Next compound, TGI to be filled in.
Given `CC[C@H]1[C@@H]2C=C[C@@H]3[C@H]4C/C=C\C(=O)NCCC[C@@H]5NC(=O)/C(=C(O)/C=C/[C@@H]4C[C@@H]3[C@H]2C[C@H]1C)C5=O` , respond with its TGI. 4.23 µM

====

# Test system: SF-539 CNS
# PROTOCOL DESCRIPTION: NCI tumour cell line growth inhibition, 48 h
MEASUREMENT TYPE: log10 TGI (log10 of the value in µM)
Values reflect log10 of reported TGI (µM).

Some entries whose results are on file:
CCN1CCC(O)(c2ccc(OC)cc2)C(C(=O)c2ccc(OC)cc2)C1 (stereo not given) ... 1.51
NCCNc1c2c(c(NCCN)c3[nH]ccc13)C(=O)c1ccccc1C2=O ... -0.05
COc1ccc2c(c1)C(=O)c1c-2c(N2CCN(C(=O)CNCCNCCO)CC2)nc2ccccc12 ... 1.03
CCCN1C(=O)N(CCC)C2C1NC(=S)N2/N=C/C=C/c1ccccc1OC (stereo not given) ... 0.36
CCOC(=O)Nc1ccc(-c2nc(-c3cccc(OCCN4CCOCC4)c3)c(-c3ccnc(Br)c3)[nH]2)cc1 ... 0.87

Give log10 TGI for the following molecule: `COc1ccc(Nc2nnc(-c3cc(O)ccc3O)s2)cc1` 1.41

Let me know recorded log10 TGI for `CN1C2CCC1CC(=CCOC(c1ccc(F)cc1)c1ccc(F)cc1)C2` , thanks. 1.50

Name the recorded log10 TGI of the molecule listed here: O=C1OCC2=C1C(c1cccc(Br)c1)c1cc3c(cc1N2CCO)CCC3 (stereo not given) 0.74

Find the measured log10 TGI of `C[C@@H]1CC[C@@H]2[C@@H]1[C@H](OC(=O)/C=C/c1ccccc1)[C@]1(C3CCCCC3)C[C@@H](OC(=O)CO)[C@@]2(C)O1` and report it. 1.27

====

# Test system: T-47D breast
# PROTOCOL DESCRIPTION: NCI tumour cell line growth inhibition, 48 h
MEASUREMENT TYPE: TGI

Previously resolved entries follow.
CCOC(=O)CC[C@H](NC(=O)[C@H](N)Cc1ccc(N(CCCl)CCCl)cc1)C(=O)OCC ... 38.6 µM
CCCCCCOC(=O)/C=C/[C@]1(CO)C/C(=C/CC(C(C)C)C(C)C)C(=O)O1 ... 37.5 µM
CCCCCCc1cc2cc(C(=O)Nc3ccccc3)c(=N)oc2cc1O ... > 47.1 µM
O=C(CC1(O)C(=O)N(Cc2ccccc2)c2ccc(F)cc21)c1ccc(C(=O)NCC2CCC3(CC2)OOC2(CCCCC2)OO3)cc1 (stereo unspecified) ... 3.11 µM
CC1CCC(=O)C(C(=O)CC2CC(=O)N(C)C(=O)C2)C1 (stereo unspecified) ... > 100 µM

Give the measured TGI for `Cn1ccc(C(=O)NCCN(CCNC(=O)c2ccn(C)c(=O)c2O)CCNC(=O)c2cccc(=O)n2O)c(O)c1=O` > 100 µM

Answer with the recorded TGI of `CN1CCN(C(=S)N2CCN(C)CC2)CC1` only. > 100 µM

====

# System: OVCAR-4 ovarian
# PROTOCOL DESCRIPTION: NCI tumour cell line growth inhibition, 48 h
MEASUREMENT TYPE: GI50

Known results for molecules:
COc1cccc2c1C(=O)c1c(O)c3c(c(O)c1C2=O)C[C@](O)(C(=O)CO)C[C@H]3O[C@@H]1C[C@@H](NC(=O)CCCCCN(C)C2(c3ccc(F)cc3)CC3CCC2C3)[C@H](O)[C@@H](C)O1 (some centres undefined) ... 1090 nM
COc1cc(-n2cc(-c3ccc(F)cc3)[nH]c2=O)cc(OC)c1OC ... > 100000 nM
O=C(CC1(O)C(=O)N(Cc2ccccc2)c2ccc(F)cc21)c1ccc(C(=O)NCC2CCC3(CC2)OOC2(CCCCC2)OO3)cc1 (centres undefined) ... 1810 nM

Tell me GI50 reported for `COc1cc(Cn2c(-c3ccccc3)c(Cl)c3c2-c2oncc2CC3)cc(OC)c1` 6570 nM

Kindly indicate its recorded GI50. Item: COc1cc(NCc2ccc3nc(N)nc(N)c3c2C)cc(OC)c1OC (tested in a mixture with another compound) 150 nM

====

This listing pairs compounds with measured TGI.
# System: KM20L2 colon
# PROTOCOL DESCRIPTION: NCI tumour cell line growth inhibition, 48 h

Completed entries (count: 5):
O=C1/C(=C/c2ccc3c(c2)OCO3)SC2C=Nc3ccccc3N12 (stereo not given) ... > 100 µM
C1CN2CCN3CCN4CCN1[P+]243 ... > 100 µM
COc1ccc(NC(=O)/C(Cc2cc(=O)oc3cc(O)ccc23)=N\NC(C)(C)C)c(OC)c1 ... > 100 µM
COC1(OC)C(N(C)C)=C(Cl)C(=O)/C1=C/C=O ... > 100 µM
COc1cc(NCc2ccc3nc(N)nc(N)c3c2C)cc(OC)c1OC (tested in a mixture with another compound) ... 48.5 µM

Annotate the compound O=C1/C(=C/c2ccc(Cl)cc2)CCC1CCN1CCOCC1 (stereo not given) with its measured TGI. > 100 µM

Read the entry `CCOc1ccc(NC(=O)C(=O)CC(=O)c2c(C)n([O-])c3ccccc3[n+]2=O)cc1` and write its reported TGI. > 100 µM

Tell me measured TGI for CC(OC(C)(C)C)[C@H](NC(=O)OCC(Cl)(Cl)Cl)C(=O)O (stereo not given in full) please. > 100 µM

Check the records and state TGI for CC(=O)Oc1c2c(c(O)c3ccccc13)C(n1cnc3c(ncn3C3OC(CO)C4OC(C)(C)OC43)c1=N)CCC2 (stereo not given) 53.5 µM

Output measured TGI for this item: `S=c1sc2c(Cl)nc(Cl)nc2n1-c1ccccc1` > 100 µM

This collection of values is drawn from PubChem BioAssay (NCI).
